experiment: 1-week stability study; type: physicochemical; settings: Input
Kindly state XRPD (pattern number) for each of the entries shown.

Fill blank: measured XRPD (pattern number) of the compound COc1ccc(C23CCC(=O)CC2N(C)CC3)cc1OC.Cl (stereo not shown) [Hydrochloride Pattern 1, reference compound] is ____.
1,

Fill blank: measured XRPD (pattern number) of the compound COc1ccc(C23CCC(=O)CC2N(C)CC3)cc1OC.O=C(O)C=CC(=O)O (stereo not shown) [Fumarate Pattern 4, mesembrine fumarate] is ____.
4,

Fill blank: measured XRPD (pattern number) of the compound COc1ccc(C23CCC(=O)CC2N(C)CC3)cc1OC.O=C(O)C=CC(=O)O (stereo not shown) [Fumarate Pattern 1 + 4, mesembrine fumarate] is ____.
1/4,

Fill blank: measured XRPD (pattern number) of the compound COc1ccc(C23CCC(=O)CC2N(C)CC3)cc1OC.O=S(=O)(O)c1ccccc1 (stereo not shown) [Besylate Pattern 1, mesembrine besylate] is ____.
1,

====

experiment: 1-week stability study; format: physicochemical; conditions: Ambient light, temperature and humidity, 1 week
Kindly state HPLC for each of the entries shown.
Give just the number in % area; leave the unit off.

Fill blank: measured HPLC of the compound COc1ccc(C23CCC(=O)CC2N(C)CC3)cc1OC.Cl (stereo not shown) [Hydrochloride Pattern 1, reference compound] is ____.
91.5

Fill blank: measured HPLC of the compound COc1ccc(C23CCC(=O)CC2N(C)CC3)cc1OC.O=C(O)C=CC(=O)O (stereo not shown) [Fumarate Pattern 1 + 4, mesembrine fumarate] is ____.
96.1

Fill blank: measured HPLC of the compound COc1ccc(C23CCC(=O)CC2N(C)CC3)cc1OC.O=S(=O)(O)c1ccccc1 (stereo not shown) [Besylate Pattern 1, mesembrine besylate] is ____.
98.1

Fill blank: measured HPLC of the compound COc1ccc(C23CCC(=O)CC2N(C)CC3)cc1OC.O=C(O)C=CC(=O)O (stereo not shown) [Fumarate Pattern 4, mesembrine fumarate] is ____.
96.4

====

type: physicochemical; conditions: Target pH 1.2 (chloride buffer), 25° C., 24 h, with respect to mesembrine
Kindly state HPLC Conc. for each of the entries shown.
Give just the number in mg/mL; leave the unit off.

Fill blank: measured HPLC Conc. of the molecule COc1ccc(C23CCC(=O)CC2N(C)CC3)cc1OC.O=C(O)/C=C/C(=O)O (stereo not shown) [Fumarate Pattern 1, mesembrine fumarate] is ____.
29.44

Fill blank: measured HPLC Conc. of the molecule COc1ccc(C23CCC(=O)CC2N(C)CC3)cc1OC.O=C(O)C=CC(=O)O (stereo not shown) [Fumarate Pattern 1 + 4, mesembrine fumarate] is ____.
29.44

====

assay: 1-week stability study; format: physicochemical; details: 80° C. (closed), 1 week
Kindly state XRPD (pattern number) for each of the entries shown.

Fill blank: measured XRPD (pattern number) of the compound COc1ccc(C23CCC(=O)CC2N(C)CC3)cc1OC.O=C(O)C=CC(=O)O (stereo not shown) [Fumarate Pattern 1 + 4, mesembrine fumarate] is ____.
6,

Fill blank: measured XRPD (pattern number) of the compound COc1ccc(C23CCC(=O)CC2N(C)CC3)cc1OC.O=C(O)C=CC(=O)O (stereo not shown) [Fumarate Pattern 4, mesembrine fumarate] is ____.
4,

Fill blank: measured XRPD (pattern number) of the compound COc1ccc(C23CCC(=O)CC2N(C)CC3)cc1OC.Cl (stereo not shown) [Hydrochloride Pattern 1, reference compound] is ____.
1,

Fill blank: measured XRPD (pattern number) of the compound COc1ccc(C23CCC(=O)CC2N(C)CC3)cc1OC.O=S(=O)(O)c1ccccc1 (stereo not shown) [Besylate Pattern 1, mesembrine besylate] is ____.
1,
